For each entry below, report its Bioactivity: percentage in vivo Factor VII knockdown value.
# Test system: Factor VII
# experiment-description: In vivo mouse Factor VII siRNA knockdown with lipid nanoparticles
# Set-up: species or system C57BL/6 mice
# measurement-setup: dose 0.03 mg/kg, intravenous, mice, 48 hours
Kindly provide the numeric value in percentage only, without the unit symbol.

Short answer for `CCCCCCCC(CCCCCCC)OC(=O)CN(CC(=O)OC(CCCCCCC)CCCCCCC)C(=O)SCCCN(CC)CC` : Bioactivity: percentage in vivo Factor VII knockdown was 25

Short answer for `CCC/C=C/CCC(CC/C=C/CCC)OC(=O)CCCN(CCCC(=O)OC/C=C\CCCCCC)C(=O)SCCN(C)C` : Bioactivity: percentage in vivo Factor VII knockdown was 72

Short answer for CCCCCC/C=C\COC(=O)CCCCCN(CCC(=O)OC(CCCCCCC)CCCCCCC)C(=O)SCCN(C)C [drawing 82] : Bioactivity: percentage in vivo Factor VII knockdown was 43

Short answer for `CCCCCC/C=C\COC(=O)CN(CC(=O)OC(CCCCCCC)CCCCCCC)C(=O)SCCCN(C)C` : Bioactivity: percentage in vivo Factor VII knockdown was 62

Short answer for `CCCCCC/C=C\COC(=O)CCCCCCN(CCCCCCC(=O)OC(CCCCCC)CCCCCC)C(=O)SCCN(C)C` : Bioactivity: percentage in vivo Factor VII knockdown was 66

Short answer for `CCCCCC/C=C\COC(=O)CCCCCCCN(CCCCCCCC(=O)OC(CCCCCCC)CCCCCCC)C(=O)SCCN(C)C` : Bioactivity: percentage in vivo Factor VII knockdown was 71

Short answer for `CCCCCC/C=C\COC(=O)CN(CC(=O)OC(CCCCCCCC)CCCCCCCC)C(=O)SCCCN(C)C` : Bioactivity: percentage in vivo Factor VII knockdown was 97

Short answer for `CCCCCC/C=C\COC(=O)CCCN(CCCC(=O)OC(CCCCCCCC)CCCCCCCC)C(=O)SCCCN(CC)CC` : Bioactivity: percentage in vivo Factor VII knockdown was 75

Short answer for `CCCCCC/C=C\COC(=O)CCCCCCCN(CCCC(=O)OC(CCCCCC)CCCCCC)C(=O)SCCN(C)C` : Bioactivity: percentage in vivo Factor VII knockdown was 63

Short answer for CCCCCC/C=C\COC(=O)CCCN(CCCC(=O)OC(CCCCCCCC)CCCCCCCC)C(=O)SCCN(C)C [drawing 76] : Bioactivity: percentage in vivo Factor VII knockdown was 80

Short answer for `CCCCCC/C=C\COC(=O)CCCN(CCCC(=O)OC(CCCCCCC)CCCCCCC)C(=O)SCCCN(CC)CC` : Bioactivity: percentage in vivo Factor VII knockdown was 96

Short answer for `CCCCCCCC(CCCCCCC)OC(=O)CCCN(CCCC(=O)OC(CCCCCCC)CCCCCCC)C(=O)SCCCN(CC)CC` : Bioactivity: percentage in vivo Factor VII knockdown was 97

Short answer for CCCCCC/C=C\COC(=O)CCCN(CCCC(=O)OC(CCCCCCC)CCCCCCCC)C(=O)SCCCN(CC)CC (stereo not shown) : Bioactivity: percentage in vivo Factor VII knockdown was 93

Short answer for `CCC/C=C/CCC(CC/C=C/CCC)OC(=O)CCCN(CCCCCC(=O)OC/C=C\CCCCCC)C(=O)SCCN(C)C` : Bioactivity: percentage in vivo Factor VII knockdown was 75

Short answer for CCCCCC(CCCCC)OC(=O)CN(CC(=O)OC(CCCCC)CCCCC)C(=O)SCCCN(C)C [drawing 51] : Bioactivity: percentage in vivo Factor VII knockdown was 0

Short answer for `CCCCCCCC(CCCCCCC)OC(=O)CN(CC(=O)OC(CCCCCCC)CCCCCCC)C(=O)SCCCN(C)C` : Bioactivity: percentage in vivo Factor VII knockdown was 25
